Where do the numbers come from? From patent US20230390362A1.

Form field: In vitro activity relative to native peptide (%), vs. GLP-1 (cAMP EC50) (one value per entry).
Target: human GLP-1 receptor (human, UniProt P43220 24-463)
Assay: cell-based or functional assay
Positions of bridges follow the written chain, without caps; N, C: chain ends. Non-standard residues stand in square brackets, D forms with d. No end group written: not given here. *: point of attachment. Acetyl(2-(4-imidazolyl)) = O=C(Cc1c[nH]cn1)*; Aib = CC(C)(N)C(=O)O
recorded.endpoint: In vitro activity relative to native peptide (%), vs. GLP-1 (cAMP EC50)

[
  {
    "binder": "{Acetyl(2-(4-imidazolyl))}-[Aib]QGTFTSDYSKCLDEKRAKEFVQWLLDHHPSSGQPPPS (bridge 15-19) [trigonal agonist of SEQ ID NO: 74]",
    "meas.value": "12.9%"
  },
  {
    "binder": "{Acetyl(2-(4-imidazolyl))}-[Aib]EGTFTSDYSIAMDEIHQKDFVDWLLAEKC (bridge 15-19) [trigonal agonist of SEQ ID NO: 91]",
    "meas.value": "31.9%"
  },
  {
    "binder": "{Acetyl(2-(4-imidazolyl))}-[Aib]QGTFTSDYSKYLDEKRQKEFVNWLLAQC (bridge 15-19) [trigonal agonist of SEQ ID NO: 86]",
    "meas.value": "28.4%"
  },
  {
    "binder": "H[Aib]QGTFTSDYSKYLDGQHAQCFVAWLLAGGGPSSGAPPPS [trigonal agonist of SEQ ID NO: 39]",
    "meas.value": "13.9%"
  },
  {
    "binder": "{Acetyl(2-(4-imidazolyl))}-[Aib]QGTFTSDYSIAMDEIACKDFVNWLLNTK (bridge 15-19) [trigonal agonist of SEQ ID NO: 61]",
    "meas.value": "59.8%"
  },
  {
    "binder": "{Acetyl(2-(4-imidazolyl))}-[Aib]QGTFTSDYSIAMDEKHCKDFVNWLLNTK (bridge 15-19) [trigonal agonist of SEQ ID NO: 60]",
    "meas.value": "106%"
  },
  {
    "binder": "Y[Aib]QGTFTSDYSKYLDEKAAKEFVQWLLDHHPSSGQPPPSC (bridge 16-20) [trigonal agonist of SEQ ID NO: 75]",
    "meas.value": "35.1%"
  },
  {
    "binder": "H[Aib]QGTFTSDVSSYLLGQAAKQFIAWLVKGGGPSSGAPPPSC [trigonal agonist of SEQ ID NO: 3]",
    "meas.value": "1.8%"
  },
  {
    "binder": "Y[Aib]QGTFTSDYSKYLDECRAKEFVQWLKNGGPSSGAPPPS (bridge 16-20) [trigonal agonist of SEQ ID NO: 24]",
    "meas.value": "41.2%"
  },
  {
    "binder": "{Acetyl(2-(4-imidazolyl))}-[Aib]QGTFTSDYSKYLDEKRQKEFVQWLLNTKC (bridge 15-19) [trigonal agonist of SEQ ID NO: 88]",
    "meas.value": "9.6%"
  },
  {
    "binder": "H[Aib]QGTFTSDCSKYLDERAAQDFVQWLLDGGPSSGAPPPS [trigonal agonist of SEQ ID NO: 25]",
    "meas.value": "82.6%"
  },
  {
    "binder": "H[Aib]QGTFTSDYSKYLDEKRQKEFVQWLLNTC (bridge 16-20) [trigonal agonist of SEQ ID NO: 51]",
    "meas.value": "14.4%"
  }
]
